Reference for the values: paper PMC8803428

- experiment: Pharmacokinetics of ginsenosides in plasma after a single oral dose of RG or BRG capsules in healthy Korean men (LC-MS/MS)
- Format: in vivo, human
- cond: male, human, plasma, po, 5 g, plasma, after single oral 5 g BRG, n = 13, mean ± SD; read-out: C max
readout: Cmax (ng/mL)

INSERT INTO assay_data (compound, quantitativeresult) VALUES
  ('CC(C)=CCC[C@](C)(O[C@@H]1O[C@H](CO[C@@H]2O[C@H](CO)[C@@H](O)[C@H](O)[C@H]2O)[C@@H](O)[C@H](O)[C@H]1O)[C@H]1CC[C@]2(C)[C@@H]1[C@H](O)C[C@@H]1[C@@]3(C)CC[C@H](O[C@@H]4O[C@H](CO)[C@@H](O)[C@H](O)[C@H]4O[C@@H]4O[C@H](CO)[C@@H](O)[C@H](O)[C@H]4O)C(C)(C)[C@@H]3CC[C@]12C [Rb1, ginsenoside Rb1]', 3.19);

* * *

- experiment: Pharmacokinetics of ginsenosides in plasma after a single oral dose of RG or BRG capsules in healthy Korean men (LC-MS/MS)
- Type: in vivo, human
- cond: male, human, plasma, po, 5 g, plasma, after single oral 5 g RG, n = 13, mean ± SD; read-out: T 1/2 (converted)
readout: half-life (h)

INSERT INTO assay_data (molecule, readout, readoutunits, quantitativeresult) VALUES
  ('CC(C)=CCC[C@](C)(O[C@@H]1O[C@H](CO[C@@H]2O[C@H](CO)[C@@H](O)[C@H](O)[C@H]2O)[C@@H](O)[C@H](O)[C@H]1O)[C@H]1CC[C@]2(C)[C@@H]1[C@H](O)C[C@@H]1[C@@]3(C)CC[C@H](O[C@@H]4O[C@H](CO)[C@@H](O)[C@H](O)[C@H]4O[C@@H]4O[C@H](CO)[C@@H](O)[C@H](O)[C@H]4O)C(C)(C)[C@@H]3CC[C@]12C [Rb1, ginsenoside Rb1]', 'half-life', 'h', 45.9);

* * *

- experiment: Pharmacokinetics of ginsenosides in plasma after a single oral dose of RG or BRG capsules in healthy Korean men (LC-MS/MS)
- Assay type: in vivo, human
- cond: male, human, plasma, po, 5 g, plasma, after single oral 5 g BRG, n = 13, mean ± SD; read-out: T max
readout: Tmax (h)

INSERT INTO results (compound, quantitativeresult) VALUES
  ('CC(C)=CCC[C@](C)(O[C@@H]1O[C@H](CO[C@@H]2O[C@H](CO)[C@@H](O)[C@H](O)[C@H]2O)[C@@H](O)[C@H](O)[C@H]1O)[C@H]1CC[C@]2(C)[C@@H]1[C@H](O)C[C@@H]1[C@@]3(C)CC[C@H](O[C@@H]4O[C@H](CO)[C@@H](O)[C@H](O)[C@H]4O[C@@H]4O[C@H](CO)[C@@H](O)[C@H](O)[C@H]4O)C(C)(C)[C@@H]3CC[C@]12C [Rb1, ginsenoside Rb1]', 6.92);

* * *

- experiment: Pharmacokinetics of ginsenosides in plasma after a single oral dose of RG or BRG capsules in healthy Korean men (LC-MS/MS)
- Assay type: in vivo, human
- cond: male, human, plasma, po, 5 g, plasma, after single oral 5 g BRG, n = 13, mean ± SD; read-out: T 1/2 (converted)
readout: half-life (min)

INSERT INTO results (compound, readout, quantitativeresult) VALUES
  ('CC(C)=CCC[C@](C)(O[C@@H]1O[C@H](CO[C@@H]2O[C@H](CO)[C@@H](O)[C@H](O)[C@H]2O)[C@@H](O)[C@H](O)[C@H]1O)[C@H]1CC[C@]2(C)[C@@H]1[C@H](O)C[C@@H]1[C@@]3(C)CC[C@H](O[C@@H]4O[C@H](CO)[C@@H](O)[C@H](O)[C@H]4O[C@@H]4O[C@H](CO)[C@@H](O)[C@H](O)[C@H]4O)C(C)(C)[C@@H]3CC[C@]12C [Rb1, ginsenoside Rb1]', 'half-life', 2280);
